Entry source: BindingDB's records for doi:10.1021/jm020820h

Here the recorded pEC50 is given for each entry.
Biological target: Reverse transcriptase/RNaseH (Human immunodeficiency virus 1, UniProt Q72547)
Assay: Effective concentration required to inhibit HIV-1 induced cytopathicity in MT-4 cell culture by 50%.
# pEC50 = -log10(concentration in molar units)

Known results for molecules:
molecule="Cc1cn(C2OC(CO[Si](C)(C)C(C)(C)C)C3(OS(=O)(=O)C(=CCCO)C3=N)C2O[Si](C)(C)C(C)(C)C)c(=O)n(C)c1=O (centres undefined)" measured_property=pEC50 observed_value=5.23
molecule="CC=C1C(=N)C2(OS1(=O)=O)C(CO)OC(n1cc(C)c(=O)[nH]c1=O)C2O[Si](C)(C)C(C)(C)C (centres undefined)" measured_property=pEC50 observed_value=4.64
molecule="CC=C1C(=N)C2(OS1(=O)=O)C(CO[Si](C)(C)C(C)(C)C)OC(n1cc(C)c(=O)[nH]c1=O)C2O[Si](C)(C)C(C)(C)C (centres undefined)" measured_property=pEC50 observed_value=5.49

Switching to the query record.
What pEC50 appears in the records for this molecule with Reverse transcriptase/RNaseH (Human immunodeficiency virus 1, UniProt Q72547)? CCOC(=O)CC=C1C(=N)C2(OS1(=O)=O)C(CO[Si](C)(C)C(C)(C)C)OC(n1cc(C)c(=O)[nH]c1=O)C2O[Si](C)(C)C(C)(C)C (centres undefined)
5.00
